Parameter: pull-down binding Z-score. Scope: all listed entries.
Test system: TO-N3 (biotin conjugate)
Assay: pull-down binding Z-score (relative to library population); higher = stronger binding
Details: RNA library: Library-2
Could you respond with only the numeric value?

Enquiry: Note down pull-down binding Z-score recorded for GUUAGACCUGGCCCUCUGUCUAAU [hsa-mir-429]
Return: 0.564

Enquiry: Give pull-down binding Z-score for GAACUUUUACGGUGAACCAGGAGGUUC [hsa-mir-629]
Return: -0.0515

Enquiry: Write down pull-down binding Z-score measured for item ACGAGAGUGAGUAGCAGGUCUC [hsa-mir-128-2]
Return: 0.627

Enquiry: # return recorded pull-down binding Z-score for entry CCCUAGGACUUACUUGUGCAGGG [hsa-mir-4253]
Return: -0.303

Enquiry: Give recorded pull-down binding Z-score. GUUUCUGCCUUUCCAACAAUUUGGCAGAGAC
Return: -0.868

Enquiry: Please look at this sequence and report its pull-down binding Z-score: CAACGGUACUAUUACCGUUG
Return: -0.553

Enquiry: Using known records, supply pull-down binding Z-score for AUAGAACAUUGACAUCAACACUAG [hsa-mir-4278]
Return: -0.204

Enquiry: Recall and state the measured pull-down binding Z-score for CUCAGAGUAGAAAUUUACAAGAAUUUAAACCCAGGAG [DMSMaPseq_invitro_SARS-CoV-2_Motif_359] .
Return: -0.463

Enquiry: Using known records, supply pull-down binding Z-score for GAUUCAGAUCUUAAUGACUUUGUC [SHAPE_invivo_SARS-CoV-2_Motif_393]
Return: -0.539

Enquiry: Indicate its recorded pull-down binding Z-score; the sequence in question is AAUGCUGUGUUUCUGUAUGGUAUU [hsa-mir-92a-1]
Return: 0.143

Enquiry: Note pull-down binding Z-score for the sequence shown: AGCUGUGUUUUCUGACUCAGUCAUAAU [hsa-mir-365b]
Return: -0.26

Enquiry: Please report the measured pull-down binding Z-score for UGUAAGUUUGCGAUGAGACACUACA [hsa-mir-144]
Return: 0.405

Enquiry: Give recorded pull-down binding Z-score. CCCAAGUCAUGAAGGAGAGGG [IAV_invivo_PA_3_Motif_13+IAV_invivo_PA_3_Motif_13]
Return: 0.816

Enquiry: Return value of pull-down binding Z-score for input AAAGUGCUUUUGUUAAUUUAAAACAAUUACCAUUUU [SHAPE_invivo_SARS-CoV-2_Motif_363] , no commentary.
Return: -1.18

Enquiry: Consider the sequence GAUGGAGGAAUCACAUGAAUUCAUC [hsa-mir-2115] . State its measured pull-down binding Z-score.
Return: -0.627

Enquiry: Read off the recorded pull-down binding Z-score for GCUUUAUGUCCUGACCCAGCUAAAGC [hsa-mir-22]
Return: 0.112

Enquiry: Identify measured pull-down binding Z-score corresponding to GAGAAACUUGAGGUCUCUGGGAGUUGCUUAAACCAGUUGACCGUAACCUGGCCAGAGAAUUCUGAUAGUGUC [hsa-mir-6740]
Return: 0.571

Enquiry: Tell us which pull-down binding Z-score value is on record for GAGGGGCUUACUGCCCUGUGGGGCUCUCUGGACCCAGUGCCAUGCUUCUC [hsa-mir-6728]
Return: 0.295

Enquiry: Consider the sequence ACGUACUGCCACUAAAGCAUACAAUGUAACACAAGCUUUCGGCAGACGU and give its recorded pull-down binding Z-score.
Return: 0.464

Enquiry: Return value of pull-down binding Z-score for input CCCAUUUAAAAUAUGGAA [hsa-mir-548ai] , no commentary.
Return: 0.322

Enquiry: Please give measured pull-down binding Z-score of the following entry: GUUACGACUAUUGUAUACCUUACAAUAGUGUAAC
Return: 0.531

Enquiry: // fetch pull-down binding Z-score given entry GGCAGUUUGUAUGUAAAUAAACAUGCAUUCC [SHAPE_invivo_SARS-CoV-2_Motif_362]
Return: -0.216

Enquiry: Indicate the recorded pull-down binding Z-score value for this sequence: CACAAAUAUGGCUCUUUGUG [hsa-mir-4474]
Return: -0.809

Enquiry: Supply reported pull-down binding Z-score belonging to this sequence: UAUUUGCCUAUAGAUA
Return: -0.128

Enquiry: Given GCAGCCUUGC [hsa-mir-4298] , respond with its pull-down binding Z-score.
Return: 0.264

Enquiry: Note pull-down binding Z-score for the sequence shown: CCUGCCUGCCUGCCUG [r(CCUG)4]
Return: 0.872

Where do the numbers come from? From the supplement of paper PMC11865577.
